- tgt: Human sputum neutrophil elastase (Homo sapiens)
- Sequence (P08246 30-247 limits assumed): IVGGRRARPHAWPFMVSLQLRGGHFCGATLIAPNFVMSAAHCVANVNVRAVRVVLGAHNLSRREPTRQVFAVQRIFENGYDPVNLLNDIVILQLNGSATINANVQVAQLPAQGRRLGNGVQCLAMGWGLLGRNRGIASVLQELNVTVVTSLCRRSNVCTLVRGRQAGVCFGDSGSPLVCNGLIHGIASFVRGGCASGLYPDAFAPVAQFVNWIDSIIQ
- test-method-notes: Inhibitor IC50 against human neutrophil elastase (fluorogenic MeOSuc-AAPV-AMC substrate)
- test-settings: 20 min preincubation, read-out: HNE IC50
readout-label: IC50

molecule: CN1CCN(c2ncccc2-c2nc3cccc(C(F)(F)F)c3c(=O)o2)CC1
readout-label: IC50
observed-result: 16 to 60 nM

molecule: CCCc1cc(OC)cc2nc(-c3cccnc3N(C)CCN(C)C)oc(=O)c12
readout-label: IC50
observed-result: 16 to 60 nM

molecule: Cc1cccc2nc(-c3cc[n+]([O-])cc3)oc(=O)c12
readout-label: IC50
observed-result: > 150 nM

molecule: CCc1cccc2nc(-c3cccnc3N3CCN(Cc4ccc(F)cc4)CC3)oc(=O)c12
readout-label: IC50
observed-result: < 15 nM

molecule: CCCc1cc(OC)cc2nc(-c3cccnc3N3CCN(CCN(C)C)CC3)oc(=O)c12
readout-label: IC50
observed-result: 16 to 60 nM

molecule: Cc1ccc(Sc2ncccc2-c2nc3cccc(C)c3c(=O)o2)cc1
readout-label: IC50
observed-result: > 150 nM

molecule: COc1cc(C(C)C)c2c(=O)oc(-c3cccnc3N3CCN(CCN4CCOCC4)CC3)nc2c1
readout-label: IC50
observed-result: 61 to 150 nM

molecule: C#CCN1CCN(c2ncccc2-c2nc3cc(OC)cc(CC)c3c(=O)o2)CC1
readout-label: IC50
observed-result: 16 to 60 nM

molecule: CCc1cc(OC)cc2nc(-c3cccnc3N3CCC(C)(C(=O)N4CCN(C)CC4)CC3)oc(=O)c12
readout-label: IC50
observed-result: 16 to 60 nM

molecule: COCCOCCOCCOCCOCCOCCOCCOc1ncccc1-c1nc2cc(OC)cc(C(C)C)c2c(=O)o1
readout-label: IC50
observed-result: > 150 nM

molecule: CCc1cc(OC)cc2nc(-c3cccnc3N3CCN(c4ccccc4)CC3)oc(=O)c12
readout-label: IC50
observed-result: 61 to 150 nM

molecule: CCc1cc(OC)cc2nc(-c3cccnc3N3CC4(C)CN(C)CC(C)(C3)C4O)oc(=O)c12 (stereo not shown)
readout-label: IC50
observed-result: < 15 nM

molecule: CCc1cc(OC)cc2nc(-c3cccnc3N3CC[C@@H](N(C)C)C3)oc(=O)c12
readout-label: IC50
observed-result: < 15 nM

molecule: Cc1cccnc1-c1nc2cccc(C)c2c(=O)o1
readout-label: IC50
observed-result: > 150 nM

molecule: CCc1cccc2nc(-c3cccnc3N3CCN(CCN(C)C)CC3)oc(=O)c12
readout-label: IC50
observed-result: < 15 nM

molecule: CCc1cccc2nc(-c3cccnc3N3CCN(CCN4CCOCC4)CC3)oc(=O)c12
readout-label: IC50
observed-result: < 15 nM

molecule: CCc1cc(OC)cc2nc(-c3cccnc3N3CCC(c4c[nH]cn4)CC3)oc(=O)c12
readout-label: IC50
observed-result: < 15 nM

molecule: CCc1cc(OC)cc2nc(-c3cccnc3N(C)CC3CCN(C)C3)oc(=O)c12 (stereo not shown)
readout-label: IC50
observed-result: < 15 nM

molecule: CCc1cccc2nc(-c3cccnc3N3CC[C@H](N(C)C)C3)oc(=O)c12
readout-label: IC50
observed-result: < 15 nM

molecule: CCc1cc(OC)cc2nc(-c3cccnc3N(C)CCCN(C)C)oc(=O)c12
readout-label: IC50
observed-result: < 15 nM

molecule: O=c1oc(-c2cccnc2Oc2ccccc2)nc2cccc(C(F)(F)F)c12
readout-label: IC50
observed-result: < 15 nM

molecule: CCc1cccc2cc(-c3c[n+]([O-])ccc3Sc3ccc(Cl)cc3)oc(=O)c12
readout-label: IC50
observed-result: 61 to 150 nM
